- measurementTarget: T1, cynomolgus monkey CD40 on cells (cynomolgus monkey, UniProt G7PG38 21-278)
- T1 construct: also called cyCD40; CHO-K1/cyCD40
- T1 sequence (G7PG38 entry or part of it limits assumed): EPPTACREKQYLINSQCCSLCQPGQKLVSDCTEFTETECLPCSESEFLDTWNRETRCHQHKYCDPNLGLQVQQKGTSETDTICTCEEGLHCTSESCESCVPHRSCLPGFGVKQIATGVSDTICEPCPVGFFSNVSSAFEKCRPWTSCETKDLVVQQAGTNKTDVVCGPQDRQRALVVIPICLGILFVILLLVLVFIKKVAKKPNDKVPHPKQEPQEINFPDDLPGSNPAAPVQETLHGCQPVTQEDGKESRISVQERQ
- procedureDetails: FACS, CHO-K1/cyCD40 cells
measuredProperty: Maximum MFI (MFI)
Form entry: value (MFI) — number only.

Query: Entry PR006511 (antibody, human IgG1, kappa, V domains shown, PR003379 variant L:S93N; human IgG1 L234A, L235A, G237A) VH: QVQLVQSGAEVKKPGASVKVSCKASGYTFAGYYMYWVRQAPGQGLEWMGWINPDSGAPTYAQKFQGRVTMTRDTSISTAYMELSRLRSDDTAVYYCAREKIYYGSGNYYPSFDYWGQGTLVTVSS VL: DIQLTQSPSFLSASVGDRVTITCRASQGISSYLAWYQQKPGKAPKLLIYAASTLQSGVPSRFSGSGSGTEFTLTISSLQPEDFATYYCQQLNNYPWTFGQGTKVEIKR : reported Maximum MFI = ?
Result: 40300

Query: Item: PR006498 (antibody, human IgG1, kappa, V domains shown, PR003379 variant L:N92I; human IgG1 L234A, L235A, G237A) VH: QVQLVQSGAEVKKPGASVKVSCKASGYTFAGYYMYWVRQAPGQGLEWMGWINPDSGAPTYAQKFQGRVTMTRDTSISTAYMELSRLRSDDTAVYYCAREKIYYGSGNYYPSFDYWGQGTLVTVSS VL: DIQLTQSPSFLSASVGDRVTITCRASQGISSYLAWYQQKPGKAPKLLIYAASTLQSGVPSRFSGSGSGTEFTLTISSLQPEDFATYYCQQLISYPWTFGQGTKVEIKR
Result: 47300

Query: Item: PR006513 (antibody, human IgG1, kappa, V domains shown, PR003379 variant L:S93Q; human IgG1 L234A, L235A, G237A) VH: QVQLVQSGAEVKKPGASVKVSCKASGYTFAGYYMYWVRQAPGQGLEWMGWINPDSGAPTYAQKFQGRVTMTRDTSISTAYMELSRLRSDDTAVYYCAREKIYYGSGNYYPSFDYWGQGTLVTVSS VL: DIQLTQSPSFLSASVGDRVTITCRASQGISSYLAWYQQKPGKAPKLLIYAASTLQSGVPSRFSGSGSGTEFTLTISSLQPEDFATYYCQQLNQYPWTFGQGTKVEIKR
Result: 40200

Query: Item: PR006510 (antibody, human IgG1, kappa, V domains shown, PR003379 variant L:S93R; human IgG1 L234A, L235A, G237A) VH: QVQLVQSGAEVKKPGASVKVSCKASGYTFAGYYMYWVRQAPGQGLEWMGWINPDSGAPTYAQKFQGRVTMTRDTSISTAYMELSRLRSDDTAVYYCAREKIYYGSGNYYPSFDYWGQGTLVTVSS VL: DIQLTQSPSFLSASVGDRVTITCRASQGISSYLAWYQQKPGKAPKLLIYAASTLQSGVPSRFSGSGSGTEFTLTISSLQPEDFATYYCQQLNRYPWTFGQGTKVEIKR
Result: 44300

Query: Item: PR006502 (antibody, human IgG1, kappa, V domains shown, PR003379 variant L:N92D; human IgG1 L234A, L235A, G237A) VH: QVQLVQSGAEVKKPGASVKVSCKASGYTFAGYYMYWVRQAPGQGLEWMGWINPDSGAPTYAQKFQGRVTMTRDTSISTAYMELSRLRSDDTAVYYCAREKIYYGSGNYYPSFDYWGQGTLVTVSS VL: DIQLTQSPSFLSASVGDRVTITCRASQGISSYLAWYQQKPGKAPKLLIYAASTLQSGVPSRFSGSGSGTEFTLTISSLQPEDFATYYCQQLDSYPWTFGQGTKVEIKR
Result: 47700
